Test: in vivo
Conditions: female, Sprague Dawley, rat, iv

Molecule | half-life
CNS(=O)(=O)Cc1ccc2[nH]cc(CCN(C)C)c2c1 [Sumatriptan, sumatriptan] | 5.07 h
